method-notes: non-covalent RecA intein splicing inhibitors, dose response, biochemical, cell-free, fluorescence, secondary screen (AID 449750)
Active and inactive are the calls of the source. No rule for the calls is given here.
Lab note: assign the record to one of active, inactive

Task item: GET /call?item= Cc1ccc(C2=NN(C(=O)CCl)C(c3ccco3)C2)o1 (stereo unspecified) returns the recorded outcome of this test.
Reply: active

Task item: Look up the recorded call for COc1ccc(OCc2cc(C(=O)NC3CCOC(C)(C)C3)no2)c2ccccc12 (stereo unspecified) in this test.
Reply: active

Task item: Any idea what this test logged for CCOc1ccc(N2C(=O)/C(=C\c3ccc(O)c(OC)c3)S(=O)(=O)C2c2cccc([N+](=O)[O-])c2)cc1 (stereo unspecified) ?
Reply: inactive

Task item: Tell me the recorded outcome of this test for CC(OC(=O)c1cc(O)c2ccccc2c1O)C(=O)Nc1ccc(C(N)=O)cc1 (stereo unspecified) .
Reply: active

Task item: Per the assay record, what outcome was assigned to CC(=O)c1ccc(OC(=O)c2cccs2)cc1 ?
Reply: inactive

Task item: Test call for this compound, please: CCC1C(=O)N(c2nc(C)cc(C)n2)N=C1C (stereo unspecified)
Reply: inactive

Task item: Please let me know the test result on file for COc1cc2c(cc1OC)-c1c(OC)c(OC)cc3c1C(C2)N(C)CC3 (stereo unspecified) .
Reply: active

Task item: Test call, this compound: CCOC(=O)C1=C(C)NC(SCc2cc(=O)[nH][nH]2)=C(C#N)C1c1cccs1 (stereo unspecified)
Reply: active

Task item: Look up the recorded call for CCOC(=O)c1cc(C)sc1NC(=O)CSC1=NCCS1 in this test.
Reply: active

Task item: What was the test verdict on Cc1[nH][nH]c(=O)c1C(c1ccc(N(C)C)c(Br)c1)c1c(C)[nH][nH]c1=O ?
Reply: active

Task item: Name the outcome recorded for CN1CCc2nc(SCC(=O)Nc3ccc(F)cc3)c(C#N)cc2C1 in the assay.
Reply: inactive

Task item: Tell me the recorded outcome of this test for CC1CC(=O)c2c(cc3c(-c4c(O)cc(O)c5c(O)c6c(cc45)OC(C)CC6=O)c(O)cc(O)c3c2O)O1 (stereo unspecified) .
Reply: active

Task item: Kindly provide the recorded test outcome for the following compound: CCCCCCCCCCn1c2c(c(=N)c3c1CCC3)CCC2
Reply: inactive

Task item: Dear all, I need the recorded test outcome for Cc1nn(Cc2ccccc2)c2c1C(c1ccncc1)C(C#N)=C(N)O2 (stereo unspecified) , thank you.
Reply: inactive

Task item: Per the assay record, what outcome was assigned to COc1ccc(OC)c(N2C(=O)C(Cl)=C(N3CCOCC3)C2=O)c1 ?
Reply: inactive

Task item: Look up the recorded call for C/C(=C\c1ccco1)C1C(C#N)=C(N)Oc2n[nH]c(-c3ccccc3)c21 (stereo unspecified) in this test.
Reply: active

Task item: Hi, sorry to bother you, what did the test record for CCOc1cc(/C=C2\C(=N)N3N=C(N4CCCCC4)SC3=NC2=O)ccc1OC(=O)c1ccco1 ?
Reply: inactive

Task item: What did the test return for COC(=O)c1ccccc1OC(=O)c1ccc(Br)o1 ?
Reply: inactive

Task item: Write down the call the test reported for this compound. Item: COc1ccc(COC(=O)N/N=C(\C)CC(=O)Nc2ccc(Cl)cn2)cc1
Reply: inactive

Task item: I would be grateful if you could indicate the recorded call for O=c1[nH]c(N2CCOCC2)cc2ccccc12 .
Reply: inactive

Task item: Hey, what did the test say about CCOC(=O)C1=C(c2ccccc2)NC(N)=NC1c1ccc(OCc2ccc(C(=O)OC)cc2)cc1 (stereo unspecified) ?
Reply: active

Data origin: PubChem BioAssay AID449750
